- System: Renilla luciferase (RLuc)
- test_details: normalised percent inhibition of luminescence (vs positive and negative controls); higher = stronger inhibition
- assay_setup: metal salt concentration 0.05 mM; 100 mM HEPES buffer
Classification field: enter Condition met for normalised percent inhibition values not below 50%, Condition not met for values below it.

O=[N+]([O-])[O-].O=[N+]([O-])[O-].[Cu+2] [copper(II) nitrate]	Condition met
O.O.O.O.O.O.O.O=S(=O)([O-])[O-].[Mg+2] [magnesium sulfate]	Condition not met

Has O=[N+]([O-])[O-].[Ag+] [silver nitrate] a recorded normalised percent inhibition greater than or equal to 50%?
Condition met

Hi, just wondering whether O=[N+]([O-])[O-].O=[N+]([O-])[O-].[Cd+2] [cadmium nitrate] shows normalised percent inhibition of 50% or higher.
Condition not met

* * *

- System: firefly luciferase (FLuc)
- test_details: normalised percent inhibition of luminescence (vs positive and negative controls); higher = stronger inhibition
- assay_setup: metal salt concentration 5 mM; screening conditions buffer
observed_property: normalised percent inhibition (%)
Just the number in %, nothing appended.

Worked examples follow.
[Cl][Pt-2]([Cl])([Cl])[Cl].[K+].[K+] [potassium tetrachloroplatinate(II)]	101
CC#N.CC#N.CC#N.CC#N.F[B-](F)(F)F.[Cu+] [tetrakis(acetonitrile)copper(I) tetrafluoroborate]	100
[Cl][Fe][Cl] [iron(II) chloride]	101
O=S(=O)([O-])[O-].[Fe+2] [iron(II) sulfate]	101
[Cl][Fe]([Cl])[Cl] [iron(III) chloride]	100
[Cl][Sn][Cl] [tin(II) chloride]	100

Let us examine a further case.
compound O=[N+]([O-])[O-].O=[N+]([O-])[O-].[Zn+2] [zinc nitrate] , normalised percent inhibition observed: 100

* * *

- Test system: Renilla luciferase (RLuc)
- test_details: normalised percent inhibition of luminescence (vs positive and negative controls); higher = stronger inhibition
- assay_setup: metal salt concentration 0.005 mM; screening conditions buffer
observed_property: normalised percent inhibition (%)
Numeric answer only, unit % assumed.

Entry [Cl][Pt-2]([Cl])([Cl])[Cl].[K+].[K+] [potassium tetrachloroplatinate(II)] — recorded normalised percent inhibition = 5.74

The recorded normalised percent inhibition for O=S(=O)([O-])[O-].[Fe+2] [iron(II) sulfate] is 11

What the record says about [Cl][Fe][Cl] [iron(II) chloride] : normalised percent inhibition is 1.72

Reported normalised percent inhibition ( CC#N.CC#N.CC#N.CC#N.F[B-](F)(F)F.[Cu+] [tetrakis(acetonitrile)copper(I) tetrafluoroborate] ) = 16.7

Just so you know, measured normalised percent inhibition for O=[N+]([O-])[O-].O=[N+]([O-])[O-].[Pb+2] [lead(II) nitrate] came out at -16.2

The compound listed as O=[N+]([O-])[O-].[Ag+] [silver nitrate] has a reported normalised percent inhibition of 8.28

The measured normalised percent inhibition associated with O=[N+]([O-])[O-].O=[N+]([O-])[O-].O=[N+]([O-])[O-].[Ga+3] [gallium(III) nitrate] reads -7.44

* * *

Reported normalised percent inhibition by item:
- System: NanoLuc luciferase (NLuc)
- test_details: normalised percent inhibition of luminescence (vs positive and negative controls); higher = stronger inhibition
- assay_setup: metal salt concentration 1 mM; screening conditions buffer
Enter your answer as a number in %; do not include the unit.

Illustrative cases are given below, each with its answer.
O=S(=O)([O-])[O-].[Fe+2] [iron(II) sulfate]	138
O=[N+]([O-])[O-].O=[N+]([O-])[O-].O=[N+]([O-])[O-].[Ga+3] [gallium(III) nitrate]	35

Per the records, this compound ( CC#N.CC#N.CC#N.CC#N.F[B-](F)(F)F.[Cu+] [tetrakis(acetonitrile)copper(I) tetrafluoroborate] ) has normalised percent inhibition equal to 160

For [Cl][Sn][Cl] [tin(II) chloride] the compound record lists normalised percent inhibition as 20.2

Entry O=[N+]([O-])[O-].O=[N+]([O-])[O-].[Pb+2] [lead(II) nitrate] , normalised percent inhibition reported as 11.5

# compound [Cl][Pt-2]([Cl])([Cl])[Cl].[K+].[K+] [potassium tetrachloroplatinate(II)] ; its normalised percent inhibition = 116

Notebook: O=[N+]([O-])[O-].O=[N+]([O-])[O-].[Zn+2] [zinc nitrate] , normalised percent inhibition read as 89

Per the record, [Cl][Fe][Cl] [iron(II) chloride] has normalised percent inhibition of 96

According to the records, this compound O=[N+]([O-])[O-].[Ag+] [silver nitrate] displays normalised percent inhibition of 120

The recorded normalised percent inhibition for entry [Cl][Fe]([Cl])[Cl] [iron(III) chloride] equals 89.6

Field normalised percent inhibition (entry O=[N+]([O-])[O-].O=[N+]([O-])[O-].[Cu+2] [copper(II) nitrate] ) reads 137

Lookup result for O=[N+]([O-])[O-].O=[N+]([O-])[O-].[Cd+2] [cadmium nitrate] ; measured normalised percent inhibition: 56.2
